System: Enterococcus faecalis
Experiment Summary: Comparative in vitro antibacterial activity with trimethoprim against Streptococcus faecalis CN478
Format: functional
Assign MIC to each entry below.
// return numeric value only (unit: µg/mL, not printed)

If you can, please state the reported MIC value of Cc1ccnc2c(N)cc(Cc3cnc(N)nc3N)cc12 .
3

Fill in the blank: the reported MIC of COc1cc(Cc2cnc(N)nc2N)cc2c1N(CCO)CCC2C (stereo unspecified) is ____.
0.3

Item under review: Cc1ccnc2ccc(Cc3cnc(N)nc3N)c(N)c12 . Reported MIC?
10

Would you mind telling me what MIC value was observed for Cc1ccnc2c([N+](=O)[O-])cc(Cc3cnc(N)nc3N)cc12 ?
3

Query (molecule): COc1cc(Cc2cnc(N)nc2N)cc2c1N(CCOC(C)=O)CCC2C (stereo unspecified) ; field requested: MIC
1

I am curious: what MIC value has been reported for COc1cc(Cc2cnc(N)nc2N)cc2c1NCCC2 ?
3
